experiment: Acute toxicity (LD50); conditions: mouse, in vivo; intravenous injection; read-out: LD50 i.v.
Parameter: LD50. Scope: all listed entries.

These recorded examples may help you get a feel for the data.
>  <MOL SMILES>
Cc1ccc(O)c(O)c1

>  <LD50>
> 50 mg/kg

$$$$
>  <MOL SMILES>
CCCc1ccc(O)c(O)c1

>  <LD50>
> 150 mg/kg

$$$$
>  <MOL SMILES>
CCCc1ccc2oc(=O)oc2c1

>  <LD50>
> 250 mg/kg

$$$$

Lookup: Find the recorded LD50 belonging to `CCCc1ccc(OC(C)=O)c(OC(C)=O)c1` and report it.
Found: > 250 mg/kg

Lookup: Find the recorded LD50 belonging to `CCCc1ccc2oc(=O)c(=O)oc2c1` and report it.
Found: > 250 mg/kg

Lookup: Find the recorded LD50 belonging to `CCCCc1ccc(O)c(O)c1` and report it.
Found: > 150 mg/kg

Lookup: Find the recorded LD50 belonging to `CCCc1ccc2c(c1)OC(C)(C)O2` and report it.
Found: > 500 mg/kg

Lookup: Find the recorded LD50 belonging to `CCc1ccc(O)c(O)c1` and report it.
Found: > 75 mg/kg

###

system: production and secretion of NGF on L-M cells; test: Promoting action for the production and secretion of NGF on L-M cells of mouse (ELISA); format: cell-based; conditions: Mus musculus, 48 h, Table 2; 0.03 mM; 48-hr culture; read-out: Ratio of NGF increase, 48-hr culture
QUANTITY KIND: fold induction at 30 µM
Quick one: just the number, no unit, thanks!

>  <COMPOUND>
COc1ccc(C)cc1O [4-Methylguaiacol, reference compound]

>  <RECORDED MEASUREMENT>
1.1

$$$$
>  <COMPOUND>
Cc1ccc2oc(=O)oc2c1 [CO-, R1 = H, R2 = Methyl, 4-methyl-o-phenylenecarbonate]

>  <RECORDED MEASUREMENT>
7.54

$$$$
>  <COMPOUND>
Cc1ccc2oc(=O)c(=O)oc2c1

>  <RECORDED MEASUREMENT>
7.6

$$$$
>  <COMPOUND>
CC(=O)Oc1ccc(C)cc1OC(C)=O

>  <RECORDED MEASUREMENT>
7.71

$$$$

Here is the next item to consider.
Lookup: Find the recorded fold induction at 30 µM belonging to `Cc1ccc2c(c1)OC(C)(C)O2` and report it.
Found: 4.33

###

Parameter: LD50. Scope: all listed entries.
test: Acute toxicity (LD50); details: mouse, in vivo; oral route; read-out: LD50 p.o.

These recorded examples may help you get a feel for the data.
>  <MOL SMILES>
CCCc1ccc2c(c1)OC(C)(C)O2

>  <LD50>
> 3500 mg/kg

$$$$
>  <MOL SMILES>
Cc1ccc(O)c(O)c1

>  <LD50>
> 500 mg/kg

$$$$
>  <MOL SMILES>
CCCc1ccc2oc(=O)oc2c1

>  <LD50>
> 2500 mg/kg

$$$$
>  <MOL SMILES>
CCCc1ccc(OC(C)=O)c(OC(C)=O)c1

>  <LD50>
> 2500 mg/kg

$$$$
>  <MOL SMILES>
CCc1ccc(O)c(O)c1

>  <LD50>
> 1000 mg/kg

$$$$
>  <MOL SMILES>
CCCc1ccc2oc(=O)c(=O)oc2c1

>  <LD50>
> 3000 mg/kg

$$$$

Lookup: Find the recorded LD50 belonging to `CCCCc1ccc(O)c(O)c1` and report it.
Found: > 1500 mg/kg

Lookup: Find the recorded LD50 belonging to `CCCc1ccc(O)c(O)c1` and report it.
Found: > 1500 mg/kg
